Assay: RP, Thermo Scientific Acclaim RSLC 120 C18, 100 × 2.1 mm, 2.2 µm, 30 °C, 0.2 mL/min, estimated dead time 1.1 min; A: 90% water + 10% methanol + 0.01% formic acid + 5 mM ammonium formate, pH 3.61; B: methanol + 0.01% formic acid + 5 mM ammonium formate, pH 3.61; gradient (min/%B) 0/1 1/1 2/39 13/99.9 15/99.9 15.1/1 20.1/1
Conditions: stereoisomer not certain
Tick 1 if LC retention time is 9 min or greater. Tick 0 if LC retention time is less than 9 min.

>>> assigned_category("CCCSc1nc(NC2CC2c2ccc(F)c(F)c2)c2nnn(C3CC(OCCO)C(O)C3O)c2n1 (stereo not given) [Ticagrelor]")
1
>>> assigned_category("O=c1[nH]sc2ccccc12 [1,2-Benzisothiazolinone]")
0
>>> assigned_category("N[C@@H](Cc1cc(I)c(Oc2cc(I)c(O)c(I)c2)c(I)c1)C(=O)O [L-Thyroxine]")
1
>>> assigned_category("CNC(C)C(=O)c1ccc2c(c1)OCO2 (stereo not given) [Methylone (MDMC)]")
0
>>> assigned_category("CC(C)N(CCC(C(N)=O)(c1ccccc1)c1ccccn1)C(C)C (stereo not given) [Disopyramide]")
0
